Assay: protein stability index of a GFP-peptide fusion (GPS, HEK-293T) (PSI 1-6); higher = more stable;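 note: 24-mer peptide tiles fused after GFP, lentivirally expressed, FACS-sorted into six equal bins by GFP/DsRed ratio, decoded by Illumina sequencing, PSI is the read-weighted mean bin number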
Settings: treatment: DMSO; c terminus: a fixed tail appended
Short version: protein stability index at least 5 is Criterion met, less is Criterion not met.

Recorded results for 6 sequences are shown here.
[[record]]
polymer_sequence = "GHVLLTDSEFSMQEPMVPAKLGTQ [PPFIA4]"
label = "Criterion not met"

[[record]]
polymer_sequence = "KLLHIYYQNSIDDRLLVERIFAQY [PDS5B]"
label = "Criterion not met"

[[record]]
polymer_sequence = "FEGFQAVSLKQEGDDQPSETDHLS [TPRG1]"
label = "Criterion met"

[[record]]
polymer_sequence = "LPYLEHVGHNHTYNMAPSALDSAD [NFE2L1]"
label = "Criterion not met"

[[record]]
polymer_sequence = "ECFMCSDCGLNLKQRGYFFLDERL [PDLIM4]"
label = "Criterion not met"

[[record]]
polymer_sequence = "LEPGSADPLANGCQGVSEAAHRLA [PSD2]"
label = "Criterion met"


Lookup: Does protein stability index meet or surpass 5 for PSGTPTNLRRHVPDLESGSESGAD [DLC1] ?
Found: Criterion met

Lookup: For this sequence, is measured protein stability index 5 or higher? FQAPCQRCGKFLQDGLPPTWRDFR [MED27]
Found: Criterion not met

Lookup: Could you please find out whether YAFANVFHGWKYMFGLVIPLGVLQ [SLC2A12] has protein stability index that meets 5 or exceeds it?
Found: Criterion not met

Lookup: Given the entry SSNFHINVEESVDGQVVSSHKREI [KRT15] , answer whether its protein stability index meets or surpasses 5.
Found: Criterion not met

// provenance: the supplement of paper PMC10567573
